Known Papp of a selection of compounds
Assay: Passive permeability in MDCK cells
Type: ADME, cell-based, Canis lupus familiaris
Conditions: dog, read-out: permeability

| structureSmiles | Papp |
| --- | --- |
| CCOC(=O)C1=C[C@@H](OC(CC)CC)[C@H](NC(C)=O)[C@@H](N)C1 | > 20 ×10⁻⁶ cm/s |
| CCC(CC)O[C@@H]1C=C(C(=O)OCCN2CCOCC2)C[C@H](N)[C@H]1NC(C)=O | > 20 ×10⁻⁶ cm/s |

###

Assay: Cmax in male C57/6J mouse at 15 mg/kg, ip measured upto 24 hrs by LC-MS/MS analysis
Format: ADME, organism-based
Conditions: in vivo
endpoint: Cmax (ng/mL)

| structureSmiles | endpoint | measuredValue |
| --- | --- | --- |
| CCC(CC)O[C@@H]1C=C(C(=O)OCCN2CCOCC2)C[C@H](N)[C@H]1NC(C)=O | Cmax | 2380 |
